List of NRF2 activation +GSH Emax values.
- Test system: NRF2 (nuclear factor erythroid 2-related factor 2)
- Assay Overview: NRF2 +/-GSH activation assay (DiscoverX PathHunter NRF2 translocation kit, U2OS cells)
- Assay type: cell-based
- Condition Context: +GSH; normalised to DMF high control
Counter-ions that a name gives are not always drawn.
// note: answer is a bare numeric in %

Solved cases (5 shown):
C=C(Cc1ccc(CCCCCCCC)cn1)C(=O)O [Example 105] :: 166
C=C(Cc1nc(C2(c3ccc(S(F)(F)(F)(F)F)cc3)CC2)no1)C(=O)O [Example 77] :: 69
C=C(Cc1nc(CCCCCCC(F)(F)C(F)(F)F)no1)C(=O)O [Example 17] :: 140
C=C(Cc1ncc(CCCCCCCC)o1)C(=O)O [Example 59] :: 136
C=C(Cc1nc(Cc2cccc(CCCC)c2)no1)C(=O)O [Example 29] :: 183

Ask: # get_value(readout='NRF2 activation +GSH Emax', item= C=C(Cc1nc(-c2ccc(OCCCC(F)(F)F)cc2)no1)C(=O)O [Example 146] )
Reply: 125

Ask: # get_value(readout='NRF2 activation +GSH Emax', item= C=C(Cc1nc(C2(c3ccc(OC(F)(F)F)cc3)CC2)no1)C(=O)O [Example 49] )
Reply: 56

Ask: # get_value(readout='NRF2 activation +GSH Emax', item= C=C(Cc1cccc(Cc2ccc(Cl)cc2)n1)C(=O)O [Example 171, trifluoroacetic acid salt] )
Reply: 0

Ask: # get_value(readout='NRF2 activation +GSH Emax', item= C=C(Cc1nc(CCCC)c(CCCC)o1)C(=O)O [Example 123] )
Reply: 42

Ask: # get_value(readout='NRF2 activation +GSH Emax', item= C/C(=C\c1nc(C2(c3ccc(Br)cc3)CC2)no1)C(=O)O [Example 168] )
Reply: 16

Ask: # get_value(readout='NRF2 activation +GSH Emax', item= C=C(C(=O)O)C(C)c1nc(C2(c3ccc(C(F)(F)F)cc3)CC2)no1 (stereo not shown) [Example 174] )
Reply: 1.8

Ask: # get_value(readout='NRF2 activation +GSH Emax', item= C=C(Cc1noc(C2(c3ccc(Br)cc3)CC2)n1)C(=O)O [Example 89] )
Reply: 63

Ask: # get_value(readout='NRF2 activation +GSH Emax', item= C=C(Cc1nc(-c2ccc(C(F)(F)CC)cc2)no1)C(=O)O [Example 71] )
Reply: 146

Ask: # get_value(readout='NRF2 activation +GSH Emax', item= C=C(Cc1nc(C2(c3cccc(Cl)c3)CC2)no1)C(=O)O [Example 21] )
Reply: 81

Ask: # get_value(readout='NRF2 activation +GSH Emax', item= C=C(C(=O)O)C(C)(C)c1nc(C2(c3ccc(C(F)(F)F)cc3)CC2)no1 [Example 172] )
Reply: 7.6

Ask: # get_value(readout='NRF2 activation +GSH Emax', item= C=C(Cc1nc(C2(c3ccccc3Cl)CC2)no1)C(=O)O [Example 24] )
Reply: 17

Ask: # get_value(readout='NRF2 activation +GSH Emax', item= C=C(Cc1nc(-c2cc(F)c(OCCCC)c(F)c2)no1)C(=O)O [Example 162] )
Reply: 269

Ask: # get_value(readout='NRF2 activation +GSH Emax', item= C=C(Cc1nc(-c2ccc(OC(C)CC)cc2)no1)C(=O)O (stereo in doubt) [Example 145] )
Reply: 135

Ask: # get_value(readout='NRF2 activation +GSH Emax', item= C=C(Cc1nc(C2CCCCCCC2)no1)C(=O)O [Example 63] )
Reply: 49

Ask: # get_value(readout='NRF2 activation +GSH Emax', item= C=C(Cc1nc(Cc2ccc(CCCC)cc2)no1)C(=O)O [Example 20] )
Reply: 146

Ask: # get_value(readout='NRF2 activation +GSH Emax', item= C=C(Cc1nc(C2(c3ccc(Cl)cc3)CCC2)no1)C(=O)O [Example 25] )
Reply: 31

Ask: # get_value(readout='NRF2 activation +GSH Emax', item= C=C(Cc1nc(-c2ccc(OCCCOC)cc2)no1)C(=O)O [Example 159] )
Reply: 85

Ask: # get_value(readout='NRF2 activation +GSH Emax', item= C=C(Cc1nc(CC2CCCCC2)no1)C(=O)O [Example 32] )
Reply: 35

Ask: # get_value(readout='NRF2 activation +GSH Emax', item= C=C(Cc1nc(Cc2ccc(C(C)(C)C)cc2)no1)C(=O)O [Example 15] )
Reply: 33

###

- Assay Overview: Hepatocyte stability assay, human
- Assay type: in vitro ADME
- Condition Context: human, hepatocytes, Hepatocyte stability Clint
Reported Property: hepatocyte CLint at 10 μM (µL/min/1e6 cells)
// note: answer is a bare numeric in µL/min/1e6 cells

Solved cases (4 shown):
C=C(Cc1nc(C(F)(F)c2ccc(Br)c(Cl)c2)no1)C(=O)O [Example 154] :: 41
C=C(Cc1nnc(CCCCCCCC)s1)C(=O)O [Example 37] :: 32
C=C(Cc1noc(C(F)(F)c2ccc(Cl)cc2)n1)C(=O)O [Example 84] :: 14
[2H]C([2H])([2H])C([2H])([2H])C([2H])([2H])C([2H])([2H])C([2H])([2H])C([2H])([2H])C([2H])([2H])C([2H])([2H])c1noc(CC(=C)C(=O)O)n1 [Example 34] :: 78

Ask: # get_value(readout='hepatocyte CLint at 10 μM', item= C=C(Cc1nc(C2(c3ccc(Cl)cc3)CCC2)no1)C(=O)O [Example 25] )
Reply: 12

###

List of NRF2 activation +GSH Emax values.
- System: NRF2 (nuclear factor erythroid 2-related factor 2)
- Assay Overview: NRF2 +/-GSH activation assay (DiscoverX PathHunter NRF2 translocation kit, U2OS cells)
- Type: cell-based
- Condition Context: +GSH; normalised to DMF high control
// note: answer is a bare numeric in %

Solved cases (5 shown):
C=C(Cc1nc(Cc2cc(Cl)cc(Cl)c2)no1)C(=O)O [Example 16] :: 149
C=C(Cc1nc(CCCCCCCCC)no1)C(=O)O [Example 53] :: 71
C=C(Cc1nc(-c2ccc(OCCCC)c(Cl)c2)no1)C(=O)O [Example 160] :: 238
C=C(Cc1nc(Cc2cc(F)c(Cl)c(F)c2)no1)C(=O)O [Example 164] :: 5.5
C=C(Cc1cc(CCCCCCCC)on1)C(=O)O [Example 102] :: 230

Ask: # get_value(readout='NRF2 activation +GSH Emax', item= C=C(Cc1nc(C2(c3ccc(Br)cc3)CC2)no1)C(=O)O [Example 50] )
Reply: 88

Ask: # get_value(readout='NRF2 activation +GSH Emax', item= C=C(Cc1nc([C@H](C)CCCCCC)no1)C(=O)O [Example 40] )
Reply: 81

Ask: # get_value(readout='NRF2 activation +GSH Emax', item= C=C(Cc1nc(-c2ccc(SC(F)(F)F)cc2)no1)C(=O)O [Example 158] )
Reply: 196

###

- Assay Overview: Hepatocyte stability assay, human
- Assay type: in vitro ADME
- Condition Context: human, hepatocytes, Hepatocyte stability T½
half-life at 10 μM under 80 min gets Condition met, anything at or over 80 min gets Condition not met.

Examples from the recorded data:
C=C(Cc1nc(Cc2ccc(Cl)cc2)no1)C(=O)O :: Condition not met
C=C(C(=O)O)C(OC)c1nc(CCCCCCCC)no1 (stereo not drawn) :: Condition met
C=C(Cc1nc(C2(c3ccc(S(F)(F)(F)(F)F)cc3)CC2)no1)C(=O)O :: Condition not met
C=C(Cc1nc(C2(c3ccc(F)cc3)CC2)no1)C(=O)O :: Condition not met
C=C(Cc1nc(CCCCCCCCC)no1)C(=O)O :: Condition met
C=C(Cc1nc(CCCCCCCCCCC)no1)C(=O)O :: Condition met

Here is the next item to consider.
Ask: half-life at 10 μM strictly < 80 min for this compound? C=C(Cc1nc(C(C)CCCCCC(F)(F)F)no1)C(=O)O (stereo not drawn)
Reply: Condition not met

###

List of half-life at 10 μM values.
- Assay Overview: Hepatocyte stability assay, human
- Format: in vitro ADME
- Condition Context: human, hepatocytes, Hepatocyte stability T½
- Method: Defrosted cryo-preserved hepatocytes (viability >70%) were used to determine the metabolic stability of a compound via calculation of intrinsic clearance (CIint; a measure of the removal of a compound from the liver in the absence of blood flow and cell binding). […] The metabolic stability in hepatocytes assay involves a time-dependent reaction using both positive and negative controls. […] 80 μL of clear supernatant was removed and mixed with 80 μL of deionised water before being analysed by LC-MS/MS. […]

C=C(Cc1ncc(CCCCCCCC)o1)C(=O)O :: < 0.05 h

Ask: # get_value(readout='half-life at 10 μM', item= `C=C(Cc1nc(C(F)(F)c2ccc(C(F)(F)F)cc2)no1)C(=O)O` )
Reply: > 7.67 h

Ask: # get_value(readout='half-life at 10 μM', item= `C=C(Cc1nc(Cc2ccc(OC(F)(F)F)cc2)no1)C(=O)O` )
Reply: > 7.45 h

Ask: # get_value(readout='half-life at 10 μM', item= `C=C(Cc1nc(-c2ccc(Cl)cc2)no1)C(=O)O` )
Reply: > 5.33 h
